Source of measurements: patent US10111854B2

- Tested on: L. amazonensis LV78 amastigotes
- TEST NAME: Anti-amastigote activity in infected PEM, L. amazonensis LV78
- Format: cell-based
- MEASUREMENT CONTEXT: Leishmania amazonensis, 72 h; infected PEM, 3 days, Giemsa
EXPERIMENTAL READOUT: IC50 (nM)

Solved cases below.
O=c1cc(-c2ccc(OCCOCCN(CCOCCO)Cc3ccncc3)cc2)oc2ccccc12 [FM21]: 4500
O=c1cc(-c2ccc(OCCC3CCCCN3Cc3ccncc3)cc2)oc2ccccc12 (centres unmarked) [FM17]: 3400
Cc1c(OCC(F)(F)F)ccnc1CN(CCOCCOc1ccc(-c2cc(=O)c3ccccc3o2)cc1)Cc1nccc(OCC(F)(F)F)c1C [FM09h]: 290
O=c1cc(-c2ccc(OCCOCCN(Cc3ccccn3)Cc3ccccn3)cc2)oc2ccccc12 [FM09]: 300

a. O=c1cc(-c2ccc(OCCOCCN(Cc3ncccc3F)Cc3ncccc3F)cc2)oc2ccccc12 [FM09c]
b. O=c1cc(-c2ccc(OCCOCCNCc3ccccc3)cc2)oc2ccccc12 [FM04]
// compare measured IC50 between a and b ; output the lower one Write the label of whichever entry you select. a
